Sourced from paper PMC9571594

protocol: MTT cell viability assay on normal Vero cells (selectivity)
Type: cell-based
condition_info: African green monkey, Vero cells (normal kidney cells), 500 ug/ml
attribute_measured: viability at 48 h, 500 ug/ml (%)
I only need the number, in %, no unit after it.

compound_structure=COc1cc(/C=C/C(=O)O)ccc1O reported_value=17.5

Could you now look at the following compound, please?
Prompt: For the compound O=C(O)/C=C/c1ccc(O)c(O)c1 , what viability at 48 h, 500 ug/ml is on record?
Completion: 18.1

* * *

Entries and their Late Apoptosis
System: Caco-2 cells
protocol: Annexin V-FITC/PI apoptosis assay by flow cytometry
Assay type: cell-based
Set-up: key: % of cells
condition_info: annexin-V FITC/PI staining, 24h
Protocol: In order to determine the percentage of viable, apoptotic and necrotic cells after treatment with our compounds, double-staining with fluorescein isothiocyanate (FITC) and PI was performed. Annexin V-FITC Apoptosis Detection Kit (BioVision, CA, USA) was used. […] Annexin V-FITC binding was measured using FACS Calibur flow cytometer (BD biosciences, USA) (Ex = 488 nm, Em = 533 nm, FL1 filter for annexin and FL2 filter for PI).
Hey, just send me the number, nothing else.

Some compounds with known Late Apoptosis results, for comparison:
compound_structure=O=C(O)/C=C/c1ccc(O)c(O)c1 tested_target="Caco-2 cells" reported_value=5.98
compound_structure=COc1ccc(/C=C/C(=O)Nc2ccccc2N)cc1O tested_target="Caco-2 cells" reported_value=5.19
compound_structure=Cc1ccc(NC(=O)/C=C/c2ccc(O)c(O)c2)cc1 tested_target="Caco-2 cells" reported_value=3.93

Prompt: For COc1ccc(/C=C/C(=O)NCc2ccccc2)cc1O , what is its reported Late Apoptosis?
Completion: 7.31

Prompt: And the next one, O=C(/C=C/c1ccc(O)c(O)c1)NCc1ccccc1 ?
Completion: 4.54

Prompt: Request: COc1cc(/C=C/C(=O)O)ccc1O
Completion: 6.48
